Each recorded value in this set is attributed to patent US20150065709A1.

# assay.remarks: Pharmacokinetic experiments in CD-1 mice
# Type: in vivo
# experimental.setup: male, mouse, plasma, 5 mg/kg Oral Administration
assay.readout: AUC(0-t) (ng·h/mL)
Answers are plain numbers, in ng·h/mL.

# count of solved cases: 2
compound=COc1cc2ncnc(Nc3ccc(F)c(Cl)c3)c2cc1NC(=O)/C=C/CN(C)Cc1ccccc1 meas_value=283
compound="CN(C/C=C/C(=O)Nc1cc2c(Nc3ccc(F)c(Cl)c3)ncnc2cc1OC1CCOC1)Cc1ccccc1 (stereo not drawn)" meas_value=91.4

Moving on to another compound below.
Specify AUC(0-t) for `CN(C)C/C=C/C(=O)Nc1cc2c(Nc3ccc(F)c(Cl)c3)ncnc2cc1OC(F)F` and stop.
1150

* * *

# assay.remarks: Pharmacokinetic experiments in CD-1 mice
# Format: in vivo
# experimental.setup: male, mouse, plasma, 1 mg/kg Intravenous Injection
assay.readout: MRT inf (h)
Numbers only, in h.

Here are 2 compounds together with their reported answers.
compound="COc1cc2ncnc(Nc3ccc(F)c(Cl)c3)c2cc1NC(=O)/C=C/CN(C)Cc1ccccc1 [Compound Ic]" measurement_unit=h meas_value=3.01
compound="CN(C/C=C/C(=O)Nc1cc2c(Nc3ccc(F)c(Cl)c3)ncnc2cc1OC1CCOC1)Cc1ccccc1 (stereo not drawn) [Compound Ia]" measurement_unit=h meas_value=0.616

Note down MRT inf recorded for CN(C)C/C=C/C(=O)Nc1cc2c(Nc3ccc(F)c(Cl)c3)ncnc2cc1OC(F)F [Compound Ie]
2.88

* * *

# tgt: EGFR (Homo sapiens)
# Sequence (P00533 25-1210): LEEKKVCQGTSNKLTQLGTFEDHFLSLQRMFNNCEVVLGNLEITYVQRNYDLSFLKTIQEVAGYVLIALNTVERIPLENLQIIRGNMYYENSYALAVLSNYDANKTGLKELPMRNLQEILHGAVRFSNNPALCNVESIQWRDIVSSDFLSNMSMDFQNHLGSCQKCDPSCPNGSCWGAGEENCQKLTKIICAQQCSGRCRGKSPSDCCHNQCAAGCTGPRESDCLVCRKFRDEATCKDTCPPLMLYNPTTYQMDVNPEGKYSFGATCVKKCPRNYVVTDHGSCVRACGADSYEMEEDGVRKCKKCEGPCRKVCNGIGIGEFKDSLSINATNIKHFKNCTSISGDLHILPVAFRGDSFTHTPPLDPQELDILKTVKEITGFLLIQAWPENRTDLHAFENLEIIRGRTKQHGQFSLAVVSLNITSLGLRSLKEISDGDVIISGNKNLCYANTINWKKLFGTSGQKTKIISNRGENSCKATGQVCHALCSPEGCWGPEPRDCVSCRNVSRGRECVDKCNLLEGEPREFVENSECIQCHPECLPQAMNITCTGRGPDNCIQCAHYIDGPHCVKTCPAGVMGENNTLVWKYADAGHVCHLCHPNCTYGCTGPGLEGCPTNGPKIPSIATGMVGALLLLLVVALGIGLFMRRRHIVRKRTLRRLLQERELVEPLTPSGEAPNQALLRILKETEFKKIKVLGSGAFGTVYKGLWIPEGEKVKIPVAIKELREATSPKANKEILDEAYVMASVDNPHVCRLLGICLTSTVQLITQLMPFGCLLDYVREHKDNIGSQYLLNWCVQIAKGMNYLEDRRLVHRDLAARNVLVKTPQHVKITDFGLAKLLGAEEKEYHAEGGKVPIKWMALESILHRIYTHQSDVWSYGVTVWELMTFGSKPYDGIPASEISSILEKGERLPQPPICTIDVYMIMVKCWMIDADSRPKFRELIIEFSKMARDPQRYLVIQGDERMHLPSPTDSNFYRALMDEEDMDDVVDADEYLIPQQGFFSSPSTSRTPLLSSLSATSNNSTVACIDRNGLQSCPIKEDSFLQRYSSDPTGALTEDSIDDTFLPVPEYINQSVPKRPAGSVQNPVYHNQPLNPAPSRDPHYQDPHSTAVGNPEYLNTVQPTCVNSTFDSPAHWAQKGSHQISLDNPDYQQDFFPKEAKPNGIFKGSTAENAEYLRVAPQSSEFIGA
# assay.remarks: Caliper Mobility Shift Assay, inhibition of EGFR kinase activity
# Type: biochemical
Please go through the items and note down their log10 of IC50.
log10 IC50, nM

molecule="COc1cc2ncnc(Nc3ccc(F)c(Cl)c3)c2cc1NC(=O)/C=C/c1ccccn1 [Compound Id]" meas_value=0.71
molecule="CN(C/C=C/C(=O)Nc1cc2c(Nc3ccc(F)c(Cl)c3)ncnc2cc1OC1CCOC1)Cc1ccccc1 (centres unmarked) [Compound Ia]" meas_value=0.30
molecule="O=C(/C=C/c1ccccn1)Nc1cc2c(Nc3ccc(F)c(Cl)c3)ncnc2cc1OC1CCOC1 (centres unmarked) [Compound Ib]" meas_value=0.59
molecule="COc1cc2ncnc(Nc3ccc(F)c(Cl)c3)c2cc1NC(=O)/C=C/CN(C)Cc1ccccc1 [Compound Ic]" meas_value=0.11

Query molecule follows.
# return recorded log10 of IC50 for entry CN(C)C/C=C/C(=O)Nc1cc2c(Nc3ccc(F)c(Cl)c3)ncnc2cc1OC(F)F [Compound Ie]
-0.40

* * *

# assay.remarks: Pharmacokinetic experiments in CD-1 mice
# Assay type: in vivo
# experimental.setup: male, mouse, plasma, 1 mg/kg Intravenous Injection, read-out: Terminal t1/2 (converted)
Assignment: determine reported half-life for the given molecules.
Numbers only, in h.

molecule=CN(C)C/C=C/C(=O)Nc1cc2c(Nc3ccc(F)c(Cl)c3)ncnc2cc1OC(F)F meas_value=2.31

Quick request: half-life for each listed item, please.
1. CN(C/C=C/C(=O)Nc1cc2c(Nc3ccc(F)c(Cl)c3)ncnc2cc1OC1CCOC1)Cc1ccccc1 (stereo not drawn)
2. COc1cc2ncnc(Nc3ccc(F)c(Cl)c3)c2cc1NC(=O)/C=C/CN(C)Cc1ccccc1

1: 0.729; 2: 2.63

* * *

# System: H1975
# assay.remarks: Inhibition of tumor cells, WST method
# Type: cell-based
# experimental.setup: Homo sapiens, NCI-H1975, 48 hours
assay.readout: IC50 (µM)
One number for each entry, in µM.

Supply recorded IC50 for CN(C)C/C=C/C(=O)Nc1cc2c(Nc3ccc(F)c(Cl)c3)ncnc2cc1OC(F)F [Compound Ie] here.
0.198
